# METHOD_NOTES: CCTE_Shafer_MEA_acute_cross_correlation_area: CCTE's Neural Acute Assay for Area of Cross Correlation, Shafer Lab (AID 2284024);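 note: area under pooled inter-electrode spike cross-correlation near zero lag as percent change from own baseline; curves fitted for loss of cross-correlation area so actives lower synchrony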
Active and inactive are the calls of the source. Rule for the calls: active = hit-call score of the fitted dose curve at least 0.9, where 1 is the maximum; inactive = score below 0.9.
Use one of these outcomes when replying: Yes for active, No for inactive

Reference set, count: 7
COMPOUND: [Cd+2].[Cl-].[Cl-]
GROUP_LABEL: No
//
COMPOUND: C#CCN(C)[C@H](C)Cc1ccccc1
GROUP_LABEL: No
//
COMPOUND: CC1(C)[C@H](C=C(Cl)Cl)[C@@H]1C(=O)O[C@@H](C#N)c1cccc(Oc2ccccc2)c1
GROUP_LABEL: Yes
//
COMPOUND: Cc1ccc(OP(=O)(Oc2ccc(C)cc2)Oc2ccc(C)cc2)cc1 (tested in a mixture with another compound)
GROUP_LABEL: No
//
COMPOUND: CCCC[N+](CCCC)(CCCC)CCCC
GROUP_LABEL: Yes
//
COMPOUND: CC1(C)[C@@H](C=C(Cl)Cl)[C@@H]1C(=O)O[C@@H](C#N)c1ccc(F)c(Oc2ccccc2)c1
GROUP_LABEL: Yes
//
COMPOUND: CC1(C)[C@H](C(=O)O[C@H](C#N)c2cccc(Oc3ccccc3)c2)[C@@H]1C=C(Br)Br
GROUP_LABEL: Yes

Field: next compound
Query :: Dear all, I need the recorded test outcome for COc1ccc(CO)cc1 , thank you.
Result :: No

----------
# METHOD_NOTES: TOX21_p53_BLA_p2_viability: Viability Assessment in the Tox21 HCT-116 p53 Agonism Beta-lactamase Assay, Phase 2 (AID 2283591);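 note: compound exposure lasted 16 h at 37 °C; actives lower the ATP signal meaning cytotoxicity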
Results filed as inconclusive are left out. The source made the active and inactive calls. The calls were made as follows: active = hit-call score of the fitted dose curve at least 0.9, where 1 is the maximum; inconclusive = response in the unintended direction; inactive = score below 0.9.
Hi there, use one of these labels in your reply, thanks! active, inactive

Please review the entries below; each comes with its answer.
MOLECULE: CCCC(=O)Cl
GROUP_LABEL: inactive
--
MOLECULE: Nc1ccccc1Cl
GROUP_LABEL: inactive
--
MOLECULE: [Hg+2].[I-].[I-]
GROUP_LABEL: active
--
MOLECULE: CN1CCN=C(c2ccccc2)c2cc(Cl)ccc21
GROUP_LABEL: inactive

Kindly review the next molecule as well.
Query :: Dear colleague, could you share the recorded outcome for c1coc(-c2nc3ccccc3[nH]2)c1 when you have a moment?
Result :: inactive

----------
# Read-out: CD40, CD40 (gene 958)
# METHOD_NOTES: BSK_SAg_CD40: BioMAP Diversity Plus: SAg Assay for CD40 Biomarker Activity (AID 2283088)
# EXPERIMENTAL_CONTEXT: primary human HUVEC with PBMC; actives raise or lower the signal
Active and inactive are the calls of the source. How the source made its calls: active means hit-call score of the fitted dose curve at least 0.9, where 1 is the maximum; inactive means score below 0.9.
Allowed answers: active, inactive

Use these answered entries as a reference point.
COMPOUND: O=C(CCl)c1ccccc1
GROUP_LABEL: active

COMPOUND: Nc1ccc(-c2ccc(N)c(N)c2)cc1N
GROUP_LABEL: inactive

COMPOUND: CNC(=O)Oc1cc(C)c(SC)c(C)c1
GROUP_LABEL: active

COMPOUND: Clc1ccc(-c2ccccc2)cc1
GROUP_LABEL: inactive

COMPOUND: CC(C)COP(=O)(OCC(C)C)OCC(C)C
GROUP_LABEL: inactive

Query :: Outcome logged for O=[N+]([O-])O in this assay:
Result :: inactive

Query :: For CC(C)(C)C(=O)CCl , which call appears in the assay record?
Result :: inactive

Query :: So what was the verdict on COCC(=O)N(c1c(C)cccc1C)N1CCOC1=O in this test?
Result :: inactive

Query :: For this compound, state the assay outcome: Cc1ccc(OP(=O)(Oc2ccc(C)cc2)Oc2ccc(C)cc2)cc1 (tested in a mixture with another compound)
Result :: active

Query :: Identify the outcome logged in this assay for the compound shown: CCCOC(=O)c1ccccc1C(=O)OCCC
Result :: inactive

Query :: What did this assay record as the result for CC(C)CCCCCCCOP(=O)(Oc1ccccc1)Oc1ccccc1 ?
Result :: active

Query :: How was O=P1(NCCCl)OCCCN1CCCl (configuration not stated) classified in this test?
Result :: inactive

----------
# METHOD_NOTES: ATG_RORE_CIS: Attagene CIS-FACTORIAL HepG2 Assay for human RAR-related Orphan Receptor Element (RORE) (AID 2282959)
# EXPERIMENTAL_CONTEXT: HepG2 Attagene cis-factorial RORE reporter, mRNA; actives raise or lower the signal
Calls of active or inactive are those of the source. How the source made its calls: active means hit-call score of the fitted dose curve at least 0.9, where 1 is the maximum; inactive means score below 0.9.
Give one outcome, nothing more. List: YES = active, NO = inactive

As a guide, the following entries are already answered.
COMPOUND: COc1cc(OC)c(OC)cc1C=O
GROUP_LABEL: NO

COMPOUND: CC(=O)C=Cc1ccccc1
GROUP_LABEL: NO

COMPOUND: O=[N+]([O-])c1ccc(Cl)cc1
GROUP_LABEL: NO

COMPOUND: CCOP(=O)(OCC)Oc1ccc([N+](=O)[O-])cc1
GROUP_LABEL: NO

Query :: Give the logged outcome of this assay for the following compound: NNc1ccccc1
Result :: NO

Query :: Any idea what this test logged for CC(C)c1ccc(O)cc1 ?
Result :: NO

Query :: Could you please tell me the result logged for Nc1cc(Cl)cc(Cl)c1 in this assay?
Result :: NO

Query :: Kindly provide the recorded test outcome for the following compound: CCC(C)c1cc(C(C)(C)C)cc(-n2nc3ccccc3n2)c1O (configuration not stated)
Result :: NO

Query :: Please let me know the test result on file for CCCCOP(=O)(O)OCCCC .
Result :: NO

----------
# METHOD_NOTES: CCTE_Shafer_MEA_dev_network_spike_peak: CCTE's Neural Network Formation Assay for Mean Number of Electrodes in Network Spike, Shafer Lab (AID 2284049);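 for AC50: fitted for loss of signal meaning fewer electrodes in network spikes than DMSO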
Active and inactive are the calls of the source. How the source made its calls: active means hit-call score of the fitted dose curve at least 0.9, where 1 is the maximum; inactive means score below 0.9.
VALUE_KIND: AC50

COMPOUND: [CH3][Hg][Cl]
AC50: 356 nM (active)

COMPOUND: CCOP(=O)(O)OCC (tested in a mixture with another compound)
AC50: inactive

COMPOUND: O=C(O)CNCP(=O)(O)O
AC50: inactive

COMPOUND: Cc1ccc(OP(=O)(Oc2ccc(C)cc2)Oc2ccc(C)cc2)cc1 (tested in a mixture with another compound)
AC50: inactive

Continue with the compound presented below.
get_value(item= CCOP(=O)(OCC)OC(Cl)C(Cl)(Cl)Cl (stereo not given) , readout=AC50) returns 2290 nM (active)

----------
# METHOD_NOTES: ATG_M_61_CIS: Attagene CIS-FACTORIAL HepG2 Assay for M61 Transcription Factor (Internal Marker) (AID 2282937)
# EXPERIMENTAL_CONTEXT: HepG2 Attagene CIS-FACTORIAL M61 internal marker reporter; actives raise or lower the signal
The source made the active and inactive calls. Rule for the calls: active = hit-call score of the fitted dose curve at least 0.9, where 1 is the maximum; inactive = score below 0.9.
VALUE_KIND: outcome

As a guide, the following entries are already answered.
COMPOUND: O=S(=O)(O)OOS(=O)(=O)O
outcome: inactive

COMPOUND: O=P1(NCCCl)OCCCN1CCCl (stereo not drawn)
outcome: inactive

COMPOUND: O=[N+]([O-])O.O=[N+]([O-])O.[Cd]
outcome: inactive

COMPOUND: O=C1C(Cl)=C(Cl)C(=O)C(Cl)=C1Cl
outcome: inactive

COMPOUND: CCC(C)(C)O
outcome: inactive

Working through the 4 compounds below one at a time, give outcome for each.
1. c1ccc(Nc2ccc3ccccc3c2)cc1
2. Cc1ccc(OP(=O)(Oc2ccc(C)cc2)Oc2ccc(C)cc2)cc1 (tested in a mixture with another compound)
3. C=CCN(CC=C)C(=O)C(Cl)Cl
4. C=CCc1ccc(OC(=O)Cc2ccccc2)c(OC)c1

Result ::
1. inactive
2. inactive
3. inactive
4. inactive

Respectfully, I request outcome for each entry included below.
1. O=C(O)CCCc1ccc(N(CCCl)CCCl)cc1
2. N#CC(c1ccccc1)c1ccccc1
3. C=CC(=O)OCCO
4. CCOP(=O)(OCC)Oc1ccc([N+](=O)[O-])cc1
5. O=C(NC(=O)c1c(F)cccc1F)Nc1ccc(Oc2ccc(C(F)(F)F)cc2Cl)cc1F
6. [CH3][Sn]([Cl])([Cl])[Cl]

Result ::
inactive
inactive
inactive
inactive
inactive
inactive

Provide the reported outcome of each entry below, same order.
1. Cc1cc(C)c(C2=C(OC(=O)CC(C)(C)C)C3(CCCC3)OC2=O)c(C)c1
2. CC[N+](=O)[O-]
3. ClC1=C(Cl)[C@]2(Cl)[C@@H]3[C@@H](Cl)[C@H](Cl)C[C@@H]3[C@@]1(Cl)C2(Cl)Cl
4. CC(C)(C)C(=O)CCl
5. [CH3][Sn]([CH3])([Cl])[Cl]
6. O=C(O)CCl
7. CCC[N+](=O)[O-]
8. CC(O)CN(CC(C)O)CC(C)O (stereo not drawn)

Result ::
1: inactive; 2: inactive; 3: inactive; 4: inactive; 5: inactive; 6: inactive; 7: inactive; 8: inactive

Each compound below has a recorded value; state its outcome.
1. CC1(C)[C@H](C(=O)O[C@H](C#N)c2cccc(Oc3ccccc3)c2)[C@@H]1C=C(Br)Br
2. C=C(Cl)CCl
3. c1ccc2c(c1)CCCC2
4. CCC(C)c1cc([N+](=O)[O-])cc([N+](=O)[O-])c1OC(=O)C=C(C)C (stereo not drawn)

Result ::
["inactive", "inactive", "inactive", "inactive"]
